Assay: Binding affinity to hematin (unknown origin) by UV-visible titration analysis
measured_endpoint: logKA

{"compound_structure": "Cc1nc(C)c(Cl)c(O)c1Cl", "measured_endpoint": "logKA", "quantitative_readout": 4.7}
{"compound_structure": "CCn1cc/c(=N\\c2ccc(Oc3ccc(Cl)cc3)cc2)c2ccc(Cl)cc21", "measured_endpoint": "logKA", "quantitative_readout": 5.1}
{"compound_structure": "CCn1cc/c(=N\\c2cccc(CCc3ccc(OC(F)(F)F)cc3)c2)c2ccc(Cl)cc21", "measured_endpoint": "logKA", "quantitative_readout": 5.2}

(A) CCn1cc/c(=N\c2ccc(Oc3cccc(OC(F)(F)F)c3)cc2)c2ccc(C(F)(F)F)cc21
(B) CCn1cc/c(=N\c2ccc(-c3ccccc3)cc2)c2ccc(C(F)(F)F)cc21
**Query** Kindly identify which of A and B has the larger recorded logKA value. Answer with the label corresponding to your selection.
**Result** B
(B: 5.7, A: 3.9)
